System: 323965-272-R-J2-PDC complex spheroid growth, % test/control;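 note: compound exposure lasted 7 days starting three days after spheroid seeding; 100% = DMSO vehicle control wells with viability set relative to vehicle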
Assay: Anticancer human tumor 323965-272-R-J2-PDC patient-derived pancreatic carcinoma cell line growth inhibition [Asc]
Details: second compound 3.16 µM; first compound 0.1 µM; active compounds read low
parameter.measured: viability, T/C (%)

>>> result_number("NC1CCC(NC2CC2c2ccccc2)CC1 (stereo not given) + Cc1c(S(C)(=O)=O)c(-c2cc(F)cc(N3CCN(c4ccc(NS(=O)(=O)c5ccc(NC(CCN6CCC(C(=O)OCCCP(=O)(O)O)CC6)CSc6ccccc6)c(S(=O)(=O)C(F)(F)F)c5)cc4)CC3)c2)c(-c2ccc(Cl)cc2)n1C(C)C")
81.2
>>> result_number("COc1c(OCCCN2CCOCC2)ccc2c3n(c(=NC(=O)c4cnc(N)nc4)nc12)CCN3 + Cc1c(S(C)(=O)=O)c(-c2cc(F)cc(N3CCN(c4ccc(NS(=O)(=O)c5ccc(NC(CCN6CCC(C(=O)OCCCP(=O)(O)O)CC6)CSc6ccccc6)c(S(=O)(=O)C(F)(F)F)c5)cc4)CC3)c2)c(-c2ccc(Cl)cc2)n1C(C)C")
46
>>> result_number("C=CC(=O)N1CCN(c2nc(=O)n(-c3c(C)ccnc3C(C)C)c3nc(-c4c(O)cccc4F)c(F)cc23)C(C)C1 (stereo not given) + Cc1c(S(C)(=O)=O)c(-c2cc(F)cc(N3CCN(c4ccc(NS(=O)(=O)c5ccc(NC(CCN6CCC(C(=O)OCCCP(=O)(O)O)CC6)CSc6ccccc6)c(S(=O)(=O)C(F)(F)F)c5)cc4)CC3)c2)c(-c2ccc(Cl)cc2)n1C(C)C")
47.4
>>> result_number("C#Cc1c(F)ccc2cc(O)cc(-c3ncc4c(N5CC6CCC(C5)N6)nc(OCC56CCCN5CC(F)C6)nc4c3F)c12 (stereo not given) + Cc1c(S(C)(=O)=O)c(-c2cc(F)cc(N3CCN(c4ccc(NS(=O)(=O)c5ccc(NC(CCN6CCC(C(=O)OCCCP(=O)(O)O)CC6)CSc6ccccc6)c(S(=O)(=O)C(F)(F)F)c5)cc4)CC3)c2)c(-c2ccc(Cl)cc2)n1C(C)C")
73.8
>>> result_number("Cn1ncnc1[C@H]1c2n[nH]c(=O)c3cc(F)cc(c23)N[C@@H]1c1ccc(F)cc1 + Cc1c(S(C)(=O)=O)c(-c2cc(F)cc(N3CCN(c4ccc(NS(=O)(=O)c5ccc(NC(CCN6CCC(C(=O)OCCCP(=O)(O)O)CC6)CSc6ccccc6)c(S(=O)(=O)C(F)(F)F)c5)cc4)CC3)c2)c(-c2ccc(Cl)cc2)n1C(C)C")
64.5
>>> result_number("C=C(F)C(=O)N1CCN(c2nc(OCC3CCCN3C)nc3c2CCN(c2cccc4cccc(Cl)c24)C3)CC1CC#N (stereo not given) + Cc1c(S(C)(=O)=O)c(-c2cc(F)cc(N3CCN(c4ccc(NS(=O)(=O)c5ccc(NC(CCN6CCC(C(=O)OCCCP(=O)(O)O)CC6)CSc6ccccc6)c(S(=O)(=O)C(F)(F)F)c5)cc4)CC3)c2)c(-c2ccc(Cl)cc2)n1C(C)C")
41.2
>>> result_number("CCN1CCN(Cc2ccc(Nc3ncc(F)c(-c4cc(F)c5nc(C)n(C(C)C)c5c4)n3)nc2)CC1 + Cc1c(S(C)(=O)=O)c(-c2cc(F)cc(N3CCN(c4ccc(NS(=O)(=O)c5ccc(NC(CCN6CCC(C(=O)OCCCP(=O)(O)O)CC6)CSc6ccccc6)c(S(=O)(=O)C(F)(F)F)c5)cc4)CC3)c2)c(-c2ccc(Cl)cc2)n1C(C)C")
65.8
>>> result_number("O=C(c1cc(Cc2n[nH]c(=O)c3ccccc23)ccc1F)N1CCN(C(=O)C2CC2)CC1 + Cc1c(S(C)(=O)=O)c(-c2cc(F)cc(N3CCN(c4ccc(NS(=O)(=O)c5ccc(NC(CCN6CCC(C(=O)OCCCP(=O)(O)O)CC6)CSc6ccccc6)c(S(=O)(=O)C(F)(F)F)c5)cc4)CC3)c2)c(-c2ccc(Cl)cc2)n1C(C)C")
76.5
>>> result_number("CNC(C)C(=O)NC1CN(S(=O)(=O)c2cccc(S(=O)(=O)N3CCC4CCC(C(=O)NC(c5ccccc5)c5ccccc5)N4C(=O)C(NC(=O)C(C)NC)C3)c2)CCC2CCC(C(=O)NC(c3ccccc3)c3ccccc3)N2C1=O (stereo not given) + Cc1c(S(C)(=O)=O)c(-c2cc(F)cc(N3CCN(c4ccc(NS(=O)(=O)c5ccc(NC(CCN6CCC(C(=O)OCCCP(=O)(O)O)CC6)CSc6ccccc6)c(S(=O)(=O)C(F)(F)F)c5)cc4)CC3)c2)c(-c2ccc(Cl)cc2)n1C(C)C")
75.8
>>> result_number("O=C(c1ccc(F)c(F)c1Nc1ccc(I)cc1F)N1CC(O)([C@@H]2CCCCN2)C1 + Cc1c(S(C)(=O)=O)c(-c2cc(F)cc(N3CCN(c4ccc(NS(=O)(=O)c5ccc(NC(CCN6CCC(C(=O)OCCCP(=O)(O)O)CC6)CSc6ccccc6)c(S(=O)(=O)C(F)(F)F)c5)cc4)CC3)c2)c(-c2ccc(Cl)cc2)n1C(C)C")
28.2
